molecular target: WEE1 (Homo sapiens); construct: purchased Thermo Fisher PR7373A; test: Selectivity versus WEE1 assay (ADP-Glo enzymatic assay); assay type: biochemical; details: fold difference in selectivity for PKMYT1 over WEE1; banded
Sequence (P30291 whole entry): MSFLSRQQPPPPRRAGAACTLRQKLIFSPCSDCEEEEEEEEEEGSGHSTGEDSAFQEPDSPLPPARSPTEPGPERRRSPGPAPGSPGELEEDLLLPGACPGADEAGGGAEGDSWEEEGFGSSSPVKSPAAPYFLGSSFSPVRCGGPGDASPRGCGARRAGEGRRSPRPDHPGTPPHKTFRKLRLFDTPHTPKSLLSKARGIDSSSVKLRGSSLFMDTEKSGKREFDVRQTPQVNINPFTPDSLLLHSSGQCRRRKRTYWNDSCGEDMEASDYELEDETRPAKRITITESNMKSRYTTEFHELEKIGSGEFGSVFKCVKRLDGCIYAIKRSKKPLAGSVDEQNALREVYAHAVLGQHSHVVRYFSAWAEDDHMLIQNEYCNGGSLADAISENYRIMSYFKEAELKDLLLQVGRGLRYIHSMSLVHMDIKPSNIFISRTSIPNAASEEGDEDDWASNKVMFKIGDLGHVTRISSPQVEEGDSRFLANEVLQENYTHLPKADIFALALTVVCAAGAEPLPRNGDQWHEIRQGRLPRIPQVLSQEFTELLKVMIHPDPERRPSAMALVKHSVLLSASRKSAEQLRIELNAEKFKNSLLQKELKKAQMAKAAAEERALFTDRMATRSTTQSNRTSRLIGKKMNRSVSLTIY

compound	PKMYT1 vs. WEE1 selectivity
Cc1ccc(O)c(C)c1NC(=O)c1cnc(Nc2nn(CCF)cc2Br)s1	X (100-<1000 fold)
Cc1ccc(O)c(C)c1NC(=O)c1cnc(Nc2ccn(C(C)C(=O)N3CCCC3)n2)s1 (centres unmarked)	X (100-<1000 fold)
Cc1cn(CC#N)nc1Nc1ncc(C(=O)Nc2c(C)ccc(O)c2C)s1	W (10-<100 fold)
CCN(CCO)C(=O)Cn1cc(C)c(Nc2ncc(C(=O)Nc3c(C)ccc(O)c3C)s2)n1	X (100-<1000 fold)
Cc1ccc(O)c(C)c1NC(=O)c1cnc(Nc2ccn(C3CCN(C)C3=O)n2)s1 (centres unmarked)	X (100-<1000 fold)
Cc1cn(CC(=O)N2CCC2C)nc1Nc1ncc(C(=O)Nc2c(C)ccc(O)c2C)s1 (centres unmarked)	X (100-<1000 fold)
Cc1ccc(O)c(C)c1NC(=O)c1cnc(Nc2ncc(C(F)(F)F)o2)s1	W (10-<100 fold)
Cc1ccc(O)c(C)c1NC(=O)c1cnc(Nc2ccc3ccncc3n2)s1	X (100-<1000 fold)
Cc1c(O)ccc(Cl)c1NC(=O)c1cnc(Nc2ccn(C)n2)s1	X (100-<1000 fold)
Cc1ccc(O)c(C)c1NC(=O)c1cnc(Nc2cccc3cccnc23)s1	X (100-<1000 fold)
